Values compiled from ChEMBL document CHEMBL4373746.

Kp uu values for the compounds below.
- assay-explanation: Unbound tissue partition coefficient, ratio of drug level in skeletal muscle to plasma in Wistar Han rat at 1 to 2 mg/kg, iv infused for 10 to 20 hrs by LC-MS/MS analysis
- measurement-conditions: skeletal muscle/plasma
Give the value as a plain number.

Use the examples below as a reference point.
compound: C[C@H]1c2cccc(CCC(C)(C)O)c2C[C@H](CO)N1C(=O)Cc1c(Cl)cccc1Cl
Kp uu: 1.3

compound: CC1(OC(=O)N2CCC(n3ncc(COc4ccc(C(N)=O)cc4F)c3C#N)CC2)CC1
Kp uu: 1

compound: Cc1ccc(CC(C)(C)NC[C@@H](O)CO[C@H](C)c2ccccc2-c2ccc(C(=O)O)c(C)c2)cc1F
Kp uu: 0.85

Consider now this further compound.
Query string: # lookup: Kp uu of `O=c1[nH]c(=S)n(CCO)c2cc[nH]c12`
Result string: 0.41
